Task for the reader: assign each of the following compounds its reported EC50.
Target: TLR8 (Homo sapiens, UniProt Q9NR97)
Construct: human HEK-Blue cells co-expressing a TLR7 or TLR8 gene
Sequence (Q9NR97 27-1041): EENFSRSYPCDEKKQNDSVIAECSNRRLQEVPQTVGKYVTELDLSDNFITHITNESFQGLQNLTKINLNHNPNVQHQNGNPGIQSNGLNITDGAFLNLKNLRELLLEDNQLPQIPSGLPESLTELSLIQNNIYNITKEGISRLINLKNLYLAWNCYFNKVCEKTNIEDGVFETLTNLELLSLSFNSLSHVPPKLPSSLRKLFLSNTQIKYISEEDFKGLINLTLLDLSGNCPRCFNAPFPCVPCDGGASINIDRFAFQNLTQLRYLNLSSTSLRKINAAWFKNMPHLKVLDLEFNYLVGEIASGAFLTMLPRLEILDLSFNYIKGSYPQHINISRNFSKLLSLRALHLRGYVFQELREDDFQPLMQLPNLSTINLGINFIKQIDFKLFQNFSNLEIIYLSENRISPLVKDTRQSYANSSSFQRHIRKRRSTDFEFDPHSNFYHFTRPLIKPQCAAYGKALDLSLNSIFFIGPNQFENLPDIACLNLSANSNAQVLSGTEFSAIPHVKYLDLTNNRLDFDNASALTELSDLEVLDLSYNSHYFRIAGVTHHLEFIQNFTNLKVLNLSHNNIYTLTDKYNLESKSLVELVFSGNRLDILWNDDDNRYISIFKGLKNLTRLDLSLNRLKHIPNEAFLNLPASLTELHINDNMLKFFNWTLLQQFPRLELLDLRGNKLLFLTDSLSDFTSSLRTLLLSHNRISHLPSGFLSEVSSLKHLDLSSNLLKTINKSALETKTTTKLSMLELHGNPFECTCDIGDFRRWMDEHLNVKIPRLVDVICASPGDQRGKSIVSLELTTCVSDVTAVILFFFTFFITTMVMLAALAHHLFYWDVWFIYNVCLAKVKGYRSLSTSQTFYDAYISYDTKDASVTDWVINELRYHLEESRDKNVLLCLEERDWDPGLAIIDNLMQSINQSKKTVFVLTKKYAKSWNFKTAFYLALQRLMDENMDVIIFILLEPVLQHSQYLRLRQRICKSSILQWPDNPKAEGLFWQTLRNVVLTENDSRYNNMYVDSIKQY
Test: In vitro human TLR8 binding reporter assay (HEK-Blue, NF-kB/AP1-inducible SEAP)
Assay type: cell-based
Details: activity range, read-out: TLR8 Agonist EC50

Record excerpt, results attached:
>  <compound>
N#CCCn1cc2c(N)nc3cc(-c4cc[nH]n4)ccc3c2n1 [Example 395]

>  <reported>
> 100 µM

$$$$
>  <compound>
CS(=O)(=O)CCn1cc2c(N)nc3cc(-c4cc[nH]n4)ccc3c2n1 [Example 463]

>  <reported>
> 100 µM

$$$$
>  <compound>
CC(C(=O)NCc1ccccc1)n1cc2c(N)nc3cc(-c4ccn[nH]4)ccc3c2n1 (centres unmarked) [Example 571]

>  <reported>
> 100 µM

$$$$
>  <compound>
Nc1nc2cc(-c3cc[nH]n3)ccc2c2[nH]c(CCNS(=O)(=O)c3ccccc3)cc12 [Example 484]

>  <reported>
> 100 µM

$$$$

Batch request: EC50 per item, same order as input.
1. Cc1nc(C(=O)NCCc2cc3c(N)nc4cc(-c5cc[nH]n5)ccc4c3[nH]2)cs1 [Example 495]
2. COC1CN(C(=O)Cn2cc3c(n2)c(N)nc2cc(-c4cc[nH]n4)ccc23)C1 [Example 546]
3. Nc1nc2cc(-c3cc[nH]n3)ccc2c2cn(CC(=O)N[C@@H]3CCOC3)nc12 [Example 533]
4. COC1CN(Cc2cc3c(N)nc4cc(-c5cc[nH]n5)ccc4c3[nH]2)C1 [Example 479]
5. CC(C)(CO)NC(=O)C(C)(C)n1cc2c(N)nc3cc(-c4cc[nH]n4)ccc3c2n1 [Example 522]
6. CC(C)(C(=O)N1CC(F)(F)C1)n1cc2c(N)nc3cc(-c4cc[nH]n4)ccc3c2n1 [Example 523]

// result
> 100 µM
> 100 µM
> 100 µM
> 100 µM
> 100 µM
> 100 µM
